Sourced from PubChem BioAssay AID686979

test: qHTS for Inhibitors of human tyrosyl-DNA phosphodiesterase 1 (TDP1): qHTS in cells in presence of CPT; note: nearly all actives have a fitted effect of over 55% in size
condition-summary: chicken DT40 Tdp1-/-;hTDP1 cells + 20 nM CPT, ATP luminescence, 48 h; series mostly up to 46.2 µM
The campaign covered roughly 420,000 compounds. About 50,000 (12%) were called active. Roughly 26% stayed inconclusive and do not appear here. Calls come from the whole dose curve; as a rule, active = well fitted inhibition curve with a large enough effect; inconclusive = small, poorly fitted or top-dose-only effect; inactive = flat fitted curve, though single readings scatter. For the sample, actives were picked, then their nearest neighbours and some compounds at random.
API: response.call in Yes for active, No for inactive

Known results for compounds:
So what was the verdict on `Cc1cc(C)cc(NS(=O)(=O)c2ccc(F)cc2)c1` in this test?
No

So what was the verdict on `C[C@H](CO)N1C[C@H](C)[C@@H](CN(C)C(=O)c2cnccn2)Oc2ncc(Br)cc2C1=O` in this test?
No

Continuing:
So what was the verdict on COc1ccccc1OC(C)C(=O)Nc1ccc(S(=O)(=O)Nc2nccs2)cc1 (stereo not given) in this test?
No

So what was the verdict on `CNC(=O)CN1C(=O)NC(c2ccccc2)(c2ccccc2)C1=O` in this test?
No

So what was the verdict on `Cc1cc(=O)oc2c3c(cc(OCC(=O)NCCC(=O)N[C@@H](C)C(=O)O)c12)OC(C)(C)CC3` in this test?
No

So what was the verdict on `Cn1c(=O)sc2cc(NS(=O)(=O)c3ccc(C(C)(C)C)cc3)ccc21` in this test?
No

So what was the verdict on CC(=O)c1cccc(OCc2cc(C(=O)NC(C)Cc3cccnc3)no2)c1 (stereo not given) in this test?
Yes

So what was the verdict on `CC1CCN(C(=O)Cn2nnnc2CN2CCOCC2)CC1` in this test?
No

So what was the verdict on `Cn1c(=O)n(C)c2cc(S(=O)(=O)Nc3ccc(F)cc3)ccc21` in this test?
Yes

So what was the verdict on `CCOC(=O)N1CCC(=NNC(N)=O)CC1` in this test?
No

* * *

test: qHTS for Inhibitors of human tyrosyl-DNA phosphodiesterase 1 (TDP1): qHTS in cells in presence of CPT; note: nearly all actives have a fitted effect of over 55% in size
condition-summary: chicken DT40 Tdp1-/-;hTDP1 cells + 20 nM CPT, ATP luminescence, 48 h; series mostly up to 46.2 µM
The campaign covered roughly 420,000 compounds. About 50,000 (12%) were called active. Inconclusive results (about 26%) are left out. The call rests on the fitted dose curve; in most records, active means well fitted inhibition curve with a large enough effect; inconclusive means small, poorly fitted or top-dose-only effect; inactive means flat fitted curve, though single readings scatter. This excerpt belongs to a sample that is enriched for actives.
API: response.call in label 1 (active), label 0 (inactive)

So what was the verdict on `COc1ccc(C(=O)NCCc2ccc(S(N)(=O)=O)cc2)cc1OC` in this test?
label 0

So what was the verdict on `CCOC(=O)c1c(C)c(C(=O)NCCc2ccc(S(N)(=O)=O)cc2)c(C)n1CC` in this test?
label 0

* * *

test: qHTS for Inhibitors of human tyrosyl-DNA phosphodiesterase 1 (TDP1): qHTS in cells in presence of CPT; note: nearly all actives have a fitted effect of over 55% in size
condition-summary: chicken DT40 Tdp1-/-;hTDP1 cells + 20 nM CPT, ATP luminescence, 48 h; series mostly up to 46.2 µM
The whole screen tested about 420,000 compounds, of which about 50,000 (12%) were called active. Inconclusive results (about 26%) are left out. Calls come from the whole dose curve; as a rule, active = well fitted inhibition curve with a large enough effect; inconclusive = small, poorly fitted or top-dose-only effect; inactive = flat fitted curve, though single readings scatter. The entries come from a sample that favours actives as a whole.
API: response.call in active, inactive

Known results for molecules:
So what was the verdict on COc1ccc([N+](=O)[O-])cc1NC(=O)CC1SC(=Nc2cccc(C)c2C)N(/N=C(\C)c2ccc(C)cc2)C1=O (stereo unspecified) in this test?
inactive

So what was the verdict on `O=C(OCc1cn([C@@H]2C[C@H](c3ccc(Cl)cc3)N(Cc3cccs3)C[C@H]2O)nn1)c1ccccc1` in this test?
inactive

So what was the verdict on `O=C(CNC(=O)c1cccnc1)N/N=C/c1cccnc1` in this test?
inactive

So what was the verdict on `Cc1nc2ccccc2n1CC(=O)N/N=C/c1cccnc1` in this test?
inactive

Continuing:
So what was the verdict on `COc1ccc(S(=O)(=O)NCC(=O)NC2CC2)cc1OC` in this test?
inactive

So what was the verdict on `O=C(CSc1cccc2cccnc12)N/N=C/c1cccnc1` in this test?
active

* * *

test: qHTS for Inhibitors of human tyrosyl-DNA phosphodiesterase 1 (TDP1): qHTS in cells in presence of CPT; note: nearly all actives have a fitted effect of over 55% in size; note: potency is the fitted concentration of half-maximal effect
condition-summary: chicken DT40 Tdp1-/-;hTDP1 cells + 20 nM CPT, ATP luminescence, 48 h; series mostly up to 46.2 µM
In all, about 420,000 compounds went through this assay and about 50,000 (12%) were called active. About 26% were inconclusive and are not listed. Many of the other results were omitted from the sample, so actives are more common in it than they were.
measurement-label: Potency

Study these solved cases before continuing.
What value of Potency has been recorded for this entry: `CCc1ccc(-c2nc(SCC(=O)NC3CCCC3)n[nH]2)cc1`
25.9 µM (active)

What value of Potency has been recorded for this entry: `Cc1ccc(-n2cnc3ncnc(-c4ccccc4)c32)cc1`
inactive

What value of Potency has been recorded for this entry: `C=C(C)CNC(=S)N/N=C/c1ccccc1OCC(=O)O`
inactive

What value of Potency has been recorded for this entry: `O=C(Cn1[nH]c(=O)c2ccccc2c1=O)Nc1cccc(-c2nnc3n2CCCCC3)c1`
inactive

What value of Potency has been recorded for this entry: `Cc1c(C(=O)Nc2cccc(-c3nnc4n3CCCCC4)c2)oc2ccccc12`
14.6 µM (active)

What value of Potency has been recorded for this entry: CCCCC(NC(=O)c1cccc(Br)c1)C(=O)O (stereo not drawn)
inactive

What value of Potency has been recorded for this entry: `Cc1cccc(-n2c(C)cc(/C=N/NC(N)=S)c2C)c1`
10.3 µM (active)

What value of Potency has been recorded for this entry: `Cc1cccc(C)c1N1C(=O)CN(Cc2ccccc2)C1=S`
inactive

Continuing:
What value of Potency has been recorded for this entry: `O=C(c1cccs1)n1nc(NCc2ccccc2)nc1NCc1ccccc1`
inactive

What value of Potency has been recorded for this entry: `C=CCNC(=S)N/N=C/c1ccc(C)s1`
4.61 µM (active)

What value of Potency has been recorded for this entry: `Cc1ccc(NC(=O)Cn2c(C)csc2=O)cc1`
inactive

What value of Potency has been recorded for this entry: CCOC(=O)CCCNC(=O)CN1C(=O)NC(CCc2ccccc2)C1=O (stereo not drawn)
inactive

What value of Potency has been recorded for this entry: `COc1cc(OC)c(N(C)C(=O)c2cc3c(=O)oc4ccccc4c3s2)cc1Cl`
inactive

* * *

test: qHTS for Inhibitors of human tyrosyl-DNA phosphodiesterase 1 (TDP1): qHTS in cells in presence of CPT; note: nearly all actives have a fitted effect of over 55% in size
condition-summary: chicken DT40 Tdp1-/-;hTDP1 cells + 20 nM CPT, ATP luminescence, 48 h; series mostly up to 46.2 µM
Among all 420,000 compounds or so, about 50,000 (12%) were called active. Inconclusive results (about 26%) are left out. The call rests on the fitted dose curve; in most records, active means well fitted inhibition curve with a large enough effect; inconclusive means small, poorly fitted or top-dose-only effect; inactive means flat fitted curve, though single readings scatter. For the sample, actives were picked, then their nearest neighbours and some compounds at random.
API: response.call in active, inactive

Known results for molecules:
So what was the verdict on CC(C)CCN(C(=O)c1csnn1)C(C(=O)NC1CCCC1)c1ccccc1 (stereo not given) in this test?
inactive

So what was the verdict on CC(=O)c1ccc(Nc2nc(C(N)c3ccccc3Cl)cs2)cc1 (stereo not given) in this test?
active

So what was the verdict on `O=C(CN1C2=NCCN2c2ccccc21)c1cccs1` in this test?
inactive

So what was the verdict on `O=C(Nc1ccccc1)Oc1cccc2cccnc12` in this test?
active

So what was the verdict on `CCOc1ccc(C(=O)Nc2ccc(CN3CCOCC3)cc2)cc1Cl` in this test?
inactive

Continuing:
So what was the verdict on `CC(=O)c1ccc(NC(=O)c2cc(-c3cccs3)on2)cc1` in this test?
inactive

So what was the verdict on `COc1ccc(CNC2CCCCC2)cc1` in this test?
inactive

So what was the verdict on CCCNC(=O)C1(C)CCCN(Cc2c(C)nn(-c3ccccc3)c2C)C1 (stereo not given) in this test?
inactive

So what was the verdict on `COc1ccc(OC)c(-n2c(=S)[nH]c3cc(C(=O)N4CCCCC4)ccc3c2=O)c1` in this test?
inactive

So what was the verdict on `Cc1ccc(-n2ncc3c(N4CCN(c5ccc(F)cc5)CC4)ncnc32)c(C)c1` in this test?
active

So what was the verdict on Cc1cc(C)c(S(=O)(=O)NCC(c2ccc3c(c2)OCO3)N2CCOCC2)c(C)c1 (stereo not given) in this test?
inactive

* * *

test: qHTS for Inhibitors of human tyrosyl-DNA phosphodiesterase 1 (TDP1): qHTS in cells in presence of CPT; note: nearly all actives have a fitted effect of over 55% in size
condition-summary: chicken DT40 Tdp1-/-;hTDP1 cells + 20 nM CPT, ATP luminescence, 48 h; series mostly up to 46.2 µM
Among all 420,000 compounds or so, about 50,000 (12%) were called active. Inconclusive results (about 26%) are left out. Calls come from the whole dose curve; as a rule, active = well fitted inhibition curve with a large enough effect; inconclusive = small, poorly fitted or top-dose-only effect; inactive = flat fitted curve, though single readings scatter. The full list was thinned out, with actives kept by preference.
API: response.call in active, inactive

So what was the verdict on `O=C(Cc1cccs1)Nc1cccc(-c2nc3ccccc3[nH]2)c1` in this test?
inactive

Continuing:
So what was the verdict on `CN(C)CCCNC(=O)c1ccc2[nH]c3ccccc3c2c1` in this test?
inactive

So what was the verdict on `CC(C)OCCCNc1ncnc2c1[nH]c1ccc(F)cc12` in this test?
active

So what was the verdict on `O=C(/C=C/c1ccc(F)cc1)NCCNC(=O)/C=C/c1ccc(F)cc1` in this test?
inactive

So what was the verdict on `C[C@@H]1CN([C@@H](C)CO)C(=O)CCCn2cc(nn2)CO[C@H]1CN(C)S(=O)(=O)c1ccc(-n2cccn2)cc1` in this test?
inactive
